- targetOrSystem: Ephrin type-A receptor 4 (Homo sapiens); note: in the data inactive means no Kd found up to 30 µM
- Sequence (P54764 whole entry): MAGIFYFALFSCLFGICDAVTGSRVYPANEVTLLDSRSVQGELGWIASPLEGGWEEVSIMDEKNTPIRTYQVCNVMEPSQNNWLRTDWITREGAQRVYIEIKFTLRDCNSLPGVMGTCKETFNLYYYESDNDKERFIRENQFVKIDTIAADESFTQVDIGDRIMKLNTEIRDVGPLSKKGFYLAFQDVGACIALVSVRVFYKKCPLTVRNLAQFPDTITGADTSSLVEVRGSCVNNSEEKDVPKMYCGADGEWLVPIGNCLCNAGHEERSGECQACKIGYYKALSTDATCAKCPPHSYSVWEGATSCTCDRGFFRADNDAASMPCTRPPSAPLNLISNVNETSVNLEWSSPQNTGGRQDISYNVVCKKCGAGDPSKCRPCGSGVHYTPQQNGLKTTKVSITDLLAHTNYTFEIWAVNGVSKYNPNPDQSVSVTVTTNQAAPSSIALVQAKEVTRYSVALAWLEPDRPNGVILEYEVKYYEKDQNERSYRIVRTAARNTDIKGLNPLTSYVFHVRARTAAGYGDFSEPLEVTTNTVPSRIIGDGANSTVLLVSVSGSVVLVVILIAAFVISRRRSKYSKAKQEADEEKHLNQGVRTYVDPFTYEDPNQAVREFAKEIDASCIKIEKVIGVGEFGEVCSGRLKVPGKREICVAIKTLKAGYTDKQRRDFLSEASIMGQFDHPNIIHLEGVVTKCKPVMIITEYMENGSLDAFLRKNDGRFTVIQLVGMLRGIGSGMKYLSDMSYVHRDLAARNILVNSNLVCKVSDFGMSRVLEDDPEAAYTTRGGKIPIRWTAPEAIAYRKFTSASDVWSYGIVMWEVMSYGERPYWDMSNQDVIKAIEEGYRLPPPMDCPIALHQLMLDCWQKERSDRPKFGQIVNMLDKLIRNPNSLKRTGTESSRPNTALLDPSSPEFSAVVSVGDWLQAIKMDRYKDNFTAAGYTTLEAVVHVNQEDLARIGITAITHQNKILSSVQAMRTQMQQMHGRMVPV
Calls of active or inactive are those of the source.
Write down the outcome that applies. Available outcomes: active, inactive

// param item: CO[C@H]1C[C@@H]2CC[C@@H](C)[C@@](O)(O2)C(=O)C(=O)N2CCCC[C@H]2C(=O)O[C@H]([C@H](C)C[C@@H]2CC[C@@H](OCCO)[C@H](OC)C2)CC(=O)[C@H](C)/C=C(\C)[C@@H](O)[C@@H](OC)C(=O)[C@H](C)C[C@H](C)/C=C/C=C/C=C/1C [EVEROLIMUS] ; yields the recorded call
inactive

How did this test come out for Cc1cc([C@@H](C)Nc2ccccc2C(=O)O)c2nc(N3CCOCC3)cc(=O)n2c1 [AZD-6482] ?
inactive

Kindly provide the recorded test outcome for the following molecule: O=c1sn(-c2cccc3ccccc23)c(=O)n1Cc1ccccc1 [TIDEGLUSIB]
inactive

Dear colleague, could you share the recorded outcome for CCc1cnn2c(NCc3ccc[n+]([O-])c3)cc(N3CCCC[C@H]3CCO)nc12 [DINACICLIB] when you have a moment?
inactive

Can you look up the reported call for COc1cc2nccc(Oc3ccc(NC(=O)NC4CC4)c(Cl)c3)c2cc1C(N)=O [LENVATINIB] for me?
inactive

Call for entry C[C@@H](Nc1cc(F)cc(F)c1)c1cc(C(=O)N(C)C)cc2c(=O)cc(N3CCOCC3)oc12 [AZD-8186] :
inactive
